TARGET UNDER TEST: NleB1 (Escherichia coli, UniProt Q8XBX8)
Construct: GST-EHEC-NleB1 in pET42a (GST/His tagged), expressed in E. coli BL21 (DE3), nickel purified; some tag cleavage noted
EXPERIMENTAL SETUP: 20 µM; inhibitor
Think of 30% as a floor: if % NleB1 inhibition (µM compound) / 20 stands on it or above, it is satisfied; beneath it, not satisfied.

// inclusive: % NleB1 inhibition (µM compound) / 20 at least 30%? input: COc1cccc(N2[C@@H](CC(=O)O)c3ccc(/C=C/C(=O)O)cc3S2(=O)=O)c1 [KUC102262N]
satisfied

Follow-up item: Cc1cccc(C)c1OCc1cn(CC(=O)c2ccc(O)cc2)nn1 [KUC104090N]
satisfied

Follow-up item: CN1CCC(N2CCN(C3CN(Cc4cn(Cc5cccc(Cl)c5)nn4)S(=O)(=O)C3)CC2)CC1 (centres unmarked) [KUC108133N]
not satisfied

Follow-up item: COc1cc(C(C)=O)ccc1OCc1cn(CC(=O)c2ccc(O)cc2)nn1 [KUC104076N]
satisfied

Follow-up item: COc1ccc(OCc2cn(CC(=O)c3ccc(O)cc3)nn2)cc1 [KUC104109N]
satisfied

Follow-up item: CC(=O)Nc1ccc(OCc2cn(CC(=O)c3ccc(O)cc3)nn2)cc1 [KUC104101N]
satisfied

Follow-up item: COCOCCn1cc(CN2CCS(=O)(=O)N(Cc3ccc(-c4ccc(OC)nc4)cc3)C(C(C)C)C2=O)nn1 (centres unmarked) [KUC105133N]
satisfied

Follow-up item: CCCCCCC(=O)N1C/C=C\C(c2ccc(OC)cc2)N(Cc2ccc(F)cc2)C(=O)[C@@H]1Cc1ccccc1 (some centres unmarked) [KUC101608N]
not satisfied

Follow-up item: O=C(c1ccc(F)cc1)N1CCCC2(CC(c3cccc(Cl)c3)=CO2)C1 (centres unmarked) [KUC111570N]
not satisfied

Follow-up item: O=Cc1cccc(OCc2cn(CC(=O)c3ccc(O)cc3)nn2)c1 [KUC104114N]
satisfied

Follow-up item: COc1ccc(-c2ccc(CN3C(C(C)C)C(=O)N(Cc4cn(CCC5OCCO5)nn4)CCS3(=O)=O)cc2)cn1 (centres unmarked) [KUC105137N]
not satisfied

Follow-up item: O=S1(=O)CCOC[C@H](c2ccccc2)N1Cc1ccc(Cl)c(Cl)c1 [KUC102739N]
not satisfied

Follow-up item: O=C(O)c1cc(-c2ccc(-c3c(-c4ccco4)noc3-c3ccccc3)cc2)nc2ccccc12 [KUC102644N]
satisfied

Follow-up item: C[C@@H]1CCCN1c1ccc2c(c1)O[C@@H]1CCN(C1)S2(=O)=O [KUC111139N]
satisfied

Follow-up item: O=C(Oc1ccc([N+](=O)[O-])cc1)O[C@H]1CC[C@@]23CCCN2C(=O)CCC[C@H]3[C@H]1Cc1ccccc1 [KUC112275N]
not satisfied

Follow-up item: CCCCCCCCCCCCN1[C@@H](CC(=O)O)c2cc(C(F)(F)F)ccc2S1(=O)=O [KUC101994N]
satisfied

Follow-up item: C[C@@H]1NC(=O)O[C@H]1c1ccco1 [KUC103195N]
not satisfied

----------
Provide the recorded % NleB1 inhibition (µM compound) / 40 for the entries that follow.
TARGET UNDER TEST: NleB1 (Escherichia coli, UniProt Q8XBX8)
Construct: GST-EHEC-NleB1 in pET42a (GST/His tagged), expressed in E. coli BL21 (DE3), nickel purified; some tag cleavage noted
EXPERIMENTAL SETUP: 40 µM; inhibitor
# output: bare number, implied unit %

Find % NleB1 inhibition (µM compound) / 40 (NleB1 (Escherichia coli, UniProt Q8XBX8)) for the entry O=C(O)c1cc(-c2ccc(-c3c(-c4ccco4)noc3-c3ccccc3)cc2)nc2ccccc12 [KUC102644N]
75.0

Follow-up item: O=C1CN(Cc2ccccc2)S(=O)(=O)c2ccccc21 [KUC101184N]
23.8

Follow-up item: COc1ccc(-c2ccc(CN3C(C(C)C)C(=O)N(Cc4cn(CCC5OCCO5)nn4)CCS3(=O)=O)cc2)cn1 (centres unmarked) [KUC105137N]
41.5

Follow-up item: CCCCN1CC(COCc2ccccc2)Oc2cccc(Oc3ccc(F)cc3OC)c2S1(=O)=O (centres unmarked) [KUC106008N]
20.7

Follow-up item: O=C(Cn1cc(COc2ccccc2C(F)(F)F)nn1)c1ccc(O)cc1 [KUC104085N]
51.8

Follow-up item: C[C@H]1CC[C@]2(CCC(=O)N2CCCOC(=O)c2ccccc2)CC1 [KUC110967N]
62.0

Follow-up item: COC(=O)[C@H](C(C)C)N1Cc2nnn(Cc3ccccc3)c2-c2ccccc2S1(=O)=O [KUC110604N]
17.9

Follow-up item: CN1CCC(N2CCN(C3CN(Cc4cn(Cc5cccc(Cl)c5)nn4)S(=O)(=O)C3)CC2)CC1 (centres unmarked) [KUC108133N]
22.3

Follow-up item: Cc1cccc(C(=O)N2CCC(=O)N([C@H](COCc3ccc(Cl)cc3)Cc3ccccc3)CC2)c1 [KUC100143N]
39.2

Follow-up item: CCCCCC(=O)N1C[C@H](n2cc(COC(=O)c3ccccc3)nn2)[C@@H](O)C[C@@H]1c1ccc(Cl)cc1 [KUC105040N]
18.9

Follow-up item: CC(=O)c1ccc(OCc2cn(CC(=O)c3ccc(O)cc3)nn2)c(F)c1 [KUC104088N]
59.8

Follow-up item: O=C(NC1CCC(=O)N(CCSc2ccccc2)CC1)OCc1ccccc1 (centres unmarked) [KUC102830N]
21.9

Follow-up item: C[C@@H]1CCCN1c1ccc2c(c1)O[C@@H]1CCN(C1)S2(=O)=O [KUC111139N]
35.7

Follow-up item: COc1cccc(N2[C@@H](CC(=O)O)c3ccc(/C=C/C(=O)O)cc3S2(=O)=O)c1 [KUC102262N]
35.9

Follow-up item: CCCCCCCCN1[C@@H](CC(=O)OC)c2ccc(/C=C/C(=O)OC)cc2S1(=O)=O [KUC102268N]
27.1

Follow-up item: Cc1ccc([C@H]2CC[C@]3(CCC(=O)N3CCOC(=O)Nc3cccc(C#N)c3)CC2)cc1 [KUC111012N]
22.4

Follow-up item: O=Cc1cccc(OCc2cn(CC(=O)c3ccc(O)cc3)nn2)c1 [KUC104114N]
57.2

Source of measurements: paper PMC6305410
